target: HLA-A*03:01; experiment: IEDB peptide-MHC binding, purified MHC/direct/fluorescence; filed as Kd, often an IC50 or EC50 that approximates it; bounds were set here for any values at or beyond the usual limits of such assays; conditions: source organism: Amur virus
Readout name: Kd (µM)

[
  {
    "Seq text": "VLFMVAWGK",
    "Experimental target": "HLA-A*03:01",
    "Unit symbol": "µM",
    "Val": 2.26
  }
]

###

molecular target: HLA-A*02:01; test: IEDB peptide-MHC binding, purified MHC/direct/fluorescence; filed as Kd, often an IC50 or EC50 that approximates it; bounds were set here for any values at or beyond the usual limits of such assays; settings: source organism: Camelpox virus CMS
pKd: −log10 of the molar value.

[
  {
    "Seq text": "DLYDMIHNV",
    "Experimental target": "HLA-A*02:01",
    "pKd": 7.80
  }
]
